Values compiled from ChEMBL document CHEMBL3779789.

Entries with their measured pKi, system UniProtKB P34972:
Answers are plain numbers, as −log10 of the molar value.

Illustrative cases are given below, each with its answer.
O=C(NC12CC3CC(CC(C3)C1)C2)c1nn(-c2ccc(Cl)cc2Cl)c2c1Cc1cc(C3CC3)ccc1-2	8.40
CC1(C)C2CC[C@@](C)(C2)C1NC(=O)c1nn(-c2ccc(Cl)cc2Cl)c2c1Cc1cc(C3CC3)ccc1-2 (some centres undefined)	8.22
O=C(NN1CCOCC1)c1nn(-c2ccc(Cl)cc2Cl)c2c1Cc1cc(C3CC3)ccc1-2	6.70
O=C(NN1CCCCC1)c1nn(-c2ccc(Cl)cc2Cl)c2c1CCc1cc(C3CC3)ccc1-2	6.84
O=C(NN1CCCC1)c1nn(-c2ccc(Cl)cc2Cl)c2c1Cc1cc(C3CCCCC3)ccc1-2	6.29

For the 3 molecules below, give their pKi values.
1. O=C(NN1CCCCC1)c1nn(-c2ccc(Cl)cc2Cl)c2c1Cc1cc(C3CC3)ccc1-2
2. O=C(NN1CCCCC1)c1nn(-c2ccc(Cl)cc2Cl)c2c1ccc1cc(C3CC3)ccc12
3. O=C(c1nn(-c2ccc(Cl)cc2Cl)c2c1Cc1cc(C3CC3)ccc1-2)N1CCCCC1

Response line:
[7.16, 6.08, 6.38]

* * *

Entries with their measured Ki, system Cannabinoid receptor 2 (Homo sapiens, UniProt P34972):
Answers are plain numbers, in µM.

Illustrative cases are given below, each with its answer.
O=C(NN1CCCCC1)c1nn(-c2ccc(Cl)cc2Cl)c2c1Cc1cc(C3CCCCC3)ccc1-2	0.509
CC1(C)C2CC[C@@](C)(C2)C1NC(=O)c1nn(-c2ccc(Cl)cc2Cl)c2c1CCc1cc(C3CC3)ccc1-2 (stereo partly drawn)	5.52
CC1(C)[C@@H]2CC[C@]1(C)[C@H](NC(=O)c1nn(-c3ccc(Cl)cc3Cl)c3c1Cc1cc(C4CC4)ccc1-3)C2	0.038

Now look at this one.
Prompt line: Fill in the blank: the reported Ki of `O=C(NN1CCCC1)c1nn(-c2ccc(Cl)cc2Cl)c2c1Cc1cc(C3CC3)ccc1-2` is ____.
Response line: 0.152

* * *

I'd be grateful if you could share measured Ratio Ki for these entries.
experiment: Selectivity ratio of Ki for human CB1 receptor expressed in HEK293-EBNA cell membrane to Ki for human CB2 receptor expressed in HEK293-EBNA cell membrane; type: cell-based

Illustrative cases are given below, each with its answer.
CC1(C)C2CC[C@@](C)(C2)C1NC(=O)c1nn(-c2ccc(Cl)cc2Cl)c2c1Cc1cc(C3CC3)ccc1-2 (stereo partly drawn)	> 6940
O=C(NN1CCCCC1)c1nn(-c2ccc(Cl)cc2Cl)c2c1Cc1cc(C3CCCCC3)ccc1-2	> 19.6

Now look at this one.
Prompt line: Fill in the blank: the reported Ratio Ki of `CC1(C)[C@@H]2CC[C@]1(C)[C@H](NC(=O)c1nn(-c3ccc(Cl)cc3Cl)c3c1Cc1cc(C4CC4)ccc1-3)C2` is ____.
Response line: > 1060

* * *

I'd be grateful if you could share measured pKi for these entries.
target: Cannabinoid receptor 1 (Homo sapiens)
pKi: −log10 of the molar value.

O=C(NN1CCCC1)c1nn(-c2ccc(Cl)cc2Cl)c2c1ccc1cc(C3CC3)ccc12	< 4.40
O=C(NN1CCCCC1)c1nn(-c2ccc(Cl)cc2Cl)c2c1Cc1cc(C3CCCCC3)ccc1-2	< 5.00
O=C(NN1CCCCC1)c1nn(-c2ccc(Cl)cc2Cl)c2c1CCc1cc(C3CC3)ccc1-2	< 4.40
O=C(NN1CCOCC1)c1nn(-c2ccc(Cl)cc2Cl)c2c1Cc1cc(C3CC3)ccc1-2	5.39
CC1(C)C2CC[C@@](C)(C2)C1NC(=O)c1nn(-c2ccc(Cl)cc2Cl)c2c1ccc1cc(C3CC3)ccc12 (some centres not stated)	< 4.40
CC1(C)C2CC[C@@](C)(C2)C1NC(=O)c1nn(-c2ccc(Cl)cc2Cl)c2c1Cc1cc(C3CCCCC3)ccc1-2 (some centres not stated)	< 5.00
O=C(NN1CCCCC1)c1nn(-c2ccc(Cl)cc2Cl)c2c1Cc1cc(C3CC3)ccc1-2	5.73
O=C(NC12CC3CC(CC(C3)C1)C2)c1nn(-c2ccc(Cl)cc2Cl)c2c1Cc1cc(C3CC3)ccc1-2	< 5.00

For the 5 compounds below, give their pKi values.
1. O=C(NN1CCCCC1)c1nn(-c2ccc(Cl)cc2Cl)c2c1ccc1cc(C3CC3)ccc12
2. O=C(c1nn(-c2ccc(Cl)cc2Cl)c2c1Cc1cc(C3CC3)ccc1-2)N1CCCCC1
3. O=C(NN1CCCC1)c1nn(-c2ccc(Cl)cc2Cl)c2c1Cc1cc(C3CC3)ccc1-2
4. CC1(C)C2CCC(CNC(=O)c3nn(-c4ccc(Cl)cc4Cl)c4c3CCc3cc(C5CC5)ccc3-4)C1C2 (configuration not stated)
5. CC1(C)[C@@H]2CC[C@]1(C)[C@H](NC(=O)c1nn(-c3ccc(Cl)cc3Cl)c3c1Cc1cc(C4CC4)ccc1-3)C2

Response line:
1. < 4.40
2. < 5.00
3. 5.38
4. < 5.00
5. < 4.40

* * *

target: UniProt:P34972; assay: Antagonist/inverse agonist activity at human CB2 receptors expressed in human Chem4 cell membrane incubated for 30 mins by [35S]GTPgammaS binding assay
I'd be grateful if you could share measured pIC50 for these entries.
Numbers only, as −log10 of the molar value.

O=C(NC12CC3CC(CC(C3)C1)C2)c1nn(-c2ccc(Cl)cc2Cl)c2c1Cc1cc(C3CC3)ccc1-2	7.29
CC1(C)C2CC[C@@](C)(C2)C1NC(=O)c1nn(-c2ccc(Cl)cc2Cl)c2c1Cc1cc(C3CC3)ccc1-2 (some centres undefined)	7.09
CC1(C)[C@@H]2CC[C@]1(C)[C@H](NC(=O)c1nn(-c3ccc(Cl)cc3Cl)c3c1Cc1cc(C4CC4)ccc1-3)C2	7.57

Now look at this one.
Prompt line: Fill in the blank: the reported pIC50 of `O=C(NN1CCCCC1)c1nn(-c2ccc(Cl)cc2Cl)c2c1Cc1cc(C3CC3)ccc1-2` is ____.
Response line: 6.53

* * *

test: Selectivity ratio of Ki for human CB1 receptor expressed in HEK293-EBNA cell membrane to Ki for human CB2 receptor expressed in HEK293-EBNA cell membrane; assay type: cell-based
quantity kind: Ratio Ki

Illustrative cases are given below, each with its answer.
O=C(NC12CC3CC(CC(C3)C1)C2)c1nn(-c2ccc(Cl)cc2Cl)c2c1Cc1cc(C3CC3)ccc1-2	> 2230
O=C(NN1CCCCC1)c1nn(-c2ccc(Cl)cc2Cl)c2c1ccc1cc(C3CC3)ccc12	> 48.5
O=C(NN1CCOCC1)c1nn(-c2ccc(Cl)cc2Cl)c2c1Cc1cc(C3CC3)ccc1-2	20.4

For the 6 compounds below, give their Ratio Ki values.
1. O=C(NN1CCCCC1)c1nn(-c2ccc(Cl)cc2Cl)c2c1CCc1cc(C3CC3)ccc1-2
2. O=C(NN1CCCCC1)c1nn(-c2ccc(Cl)cc2Cl)c2c1Cc1cc(C3CC3)ccc1-2
3. O=C(c1nn(-c2ccc(Cl)cc2Cl)c2c1Cc1cc(C3CC3)ccc1-2)N1CCCCC1
4. O=C(NN1CCCC1)c1nn(-c2ccc(Cl)cc2Cl)c2c1Cc1cc(C3CCCCC3)ccc1-2
5. CC1(C)C2CC[C@@](C)(C2)C1NC(=O)c1nn(-c2ccc(Cl)cc2Cl)c2c1CCc1cc(C3CC3)ccc1-2 (some centres undefined)
6. O=C(NN1CCCC1)c1nn(-c2ccc(Cl)cc2Cl)c2c1Cc1cc(C3CC3)ccc1-2

Response line:
1. > 280
2. 26.7
3. > 24.2
4. > 19.4
5. > 7.25
6. 27.7

* * *

molecular target: UniProt:P34972; test: Displacement of [3H]CP55940 from human CB2 receptor expressed in HEK293-EBNA cell membrane incubated for 90 mins by liquid scintillation counting method; type: cell membranes
pKi: −log10 of the molar value.
quantity kind: pKi

Illustrative cases are given below, each with its answer.
CC1(C)C2CC[C@@](C)(C2)C1NC(=O)c1nn(-c2ccc(Cl)cc2Cl)c2c1ccc1cc(C3CC3)ccc12 (some centres undefined)	< 4.40
CC1(C)C2CCC(CNC(=O)c3nn(-c4ccc(Cl)cc4Cl)c4c3CCc3cc(C5CC5)ccc3-4)C1C2 (centres undefined)	< 5.00
CC1(C)C2CC[C@@](C)(C2)C1NC(=O)c1nn(-c2ccc(Cl)cc2Cl)c2c1Cc1cc(C3CCCCC3)ccc1-2 (some centres undefined)	< 5.00

Now look at this one.
Prompt line: Fill in the blank: the reported pKi of `O=C(NN1CCCC1)c1nn(-c2ccc(Cl)cc2Cl)c2c1ccc1cc(C3CC3)ccc12` is ____.
Response line: < 4.40

* * *

I'd be grateful if you could share measured Ki for these entries.
target: Cannabinoid receptor 1 (Homo sapiens, UniProt P21554)
Sequence (P21554 whole entry): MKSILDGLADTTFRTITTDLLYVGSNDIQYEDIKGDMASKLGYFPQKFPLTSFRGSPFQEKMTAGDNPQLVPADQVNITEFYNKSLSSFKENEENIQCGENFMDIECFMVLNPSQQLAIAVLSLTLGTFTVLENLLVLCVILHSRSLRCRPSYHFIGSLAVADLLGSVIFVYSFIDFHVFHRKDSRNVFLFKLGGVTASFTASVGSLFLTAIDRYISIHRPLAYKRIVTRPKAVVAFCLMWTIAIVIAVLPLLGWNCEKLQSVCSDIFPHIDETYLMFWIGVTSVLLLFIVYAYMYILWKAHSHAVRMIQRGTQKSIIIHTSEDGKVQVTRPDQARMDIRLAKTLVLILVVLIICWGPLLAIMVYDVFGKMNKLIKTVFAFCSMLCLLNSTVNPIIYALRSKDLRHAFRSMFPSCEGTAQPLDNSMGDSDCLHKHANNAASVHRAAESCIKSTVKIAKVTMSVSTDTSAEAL

Illustrative cases are given below, each with its answer.
CC1(C)C2CC[C@@](C)(C2)C1NC(=O)c1nn(-c2ccc(Cl)cc2Cl)c2c1CCc1cc(C3CC3)ccc1-2 (some centres undefined)	> 40 µM
CC1(C)C2CC[C@@](C)(C2)C1NC(=O)c1nn(-c2ccc(Cl)cc2Cl)c2c1Cc1cc(C3CC3)ccc1-2 (some centres undefined)	> 40 µM
O=C(c1nn(-c2ccc(Cl)cc2Cl)c2c1ccc1cc(C3CC3)ccc12)N1CCCCC1	> 40 µM

Now look at this one.
Prompt line: Fill in the blank: the reported Ki of `O=C(NN1CCCC1)c1nn(-c2ccc(Cl)cc2Cl)c2c1Cc1cc(C3CCCCC3)ccc1-2` is ____.
Response line: > 10 µM
